# credit: patent US9216991B2

- tgt: IRAK4 (Homo sapiens, UniProt Q9NWZ3)
- Construct: His (N); TEV cleavage site (N)
- protocol details: IRAK4 Enzymatic Assay
- experimental context: His-TEV-IRAK4 20 ng/well, ATP 2 μM, STK1-biotin peptide 300 nM, 3 hours at 30° C., FlashPlate radioactivity
pIC50: −log10 of the molar value. Counter-ions that a name gives are not always drawn.
property name: pIC50

Here's what some known entries look like.
* CC(C(=O)N1CCOCC1)n1cc(-c2cnc(-c3cccc(-c4cnn(C)c4)c3)nc2)cn1 (stereo not drawn) [Example 103] | 5.30 to 6.00
* Cn1cc(-c2cccc(-c3ncc(-c4cnn(CCC(=O)N5CCCC5)c4)cn3)c2)cn1 [Example 84] | 5.30 to 6.00
* Cn1cc(-c2cccc(-c3ncc(-c4cnn(CC5CCNCC5)c4)cn3)c2)cn1 [Example 29, hydrochloride] | 5.30 to 6.00
* Cn1cc(-c2cccc(-c3ncc(-c4cnn([C@H]5CC[C@](O)(CO)CC5)c4)cn3)c2)cn1 [Example 258] | > 7.00
* Cn1cc(-c2cccc(-c3ncc(-c4cn(C5CCOCC5)nc4C(=O)NCCO)cn3)c2)cn1 [Example 154] | 5.30 to 6.00

Required: pIC50, one value per compound below.
1. Cn1cc(-c2cccc(-c3ncc(-c4cnn(CC5CCOC5)c4)cn3)c2)cn1 (stereo not drawn) [Example 45]
2. COCC(C)NC(=O)[C@H]1CC[C@H](n2cc(-c3cnc(-c4cccc(-c5cnn(C)c5)c4)nc3)cn2)CC1 (stereo partly drawn) [Example 178]
3. Cn1cc(-c2cccc(-c3ncc(-c4cnn([C@@H]5CCCN(S(C)(=O)=O)C5)c4)cn3)c2)cn1 [Example 268]

Result:
6.00 to 7.00
> 7.00
> 7.00

Required: pIC50, one value per compound below.
1. Cn1cc(-c2cccc(-c3ncc(-c4cnn(C5CCN(C(=O)C6CC(=O)C6)CC5)c4)cn3)c2)cn1 [Example 117]
2. CC(=O)N1[C@@H]2COC[C@H]1C[C@H](n1cc(-c3cnc(-c4cccc(-c5cnn(C)c5)c4)nc3)cn1)C2 [Example 193]
3. CCC(O)CNC(=O)[C@H]1CC[C@H](n2cc(-c3cnc(-c4cccc(-c5cnn(C)c5)c4)nc3)cn2)CC1 (stereo partly drawn) [Example 203]
4. Cn1cc(-c2cccc(-c3ncc(-c4cnn(C5CCC(C(=O)N6CCO[C@H](CO)C6)CC5)c4)cn3)c2)cn1 (stereo partly drawn) [Example 261]
5. Cc1cc(-c2cccc(-c3ncc(-c4cnn([C@H]5CC[C@H](CO)CC5)c4)cn3)c2)cnn1 [Example 256]
6. CN(C)CCn1cc(-c2cnc(-c3cccc(-c4cnn(C)c4)c3)nc2)cn1 [Example 11]
7. Cn1cc(-c2cccc(-c3ncc(-c4cnn(CC(=O)N5CCC[C@H]5CO)c4)cn3)c2)cn1 [Example 81]

Result:
6.00 to 7.00
6.00 to 7.00
> 7.00
> 7.00
> 7.00
5.30 to 6.00
6.00 to 7.00

###

Field: pIC50. Provide a value for each of the compounds that follow.
- tgt: IRAK4 (Homo sapiens)
- Construct: His (N); TEV cleavage site (N)
- protocol details: IRAK4 Enzymatic Assay
- experimental context: His-TEV-IRAK4 20 ng/well, ATP 2 μM, STK1-biotin peptide 300 nM, 3 hours at 30° C., FlashPlate radioactivity
pIC50: −log10 of the molar value. Counter-ions that a name gives are not always drawn.

Here's what some known entries look like.
* Cn1cc(-c2cccc(-c3ncc(-c4cnn(CC(=O)N5CC(O)C5)c4)cn3)c2)cn1 | 6.00 to 7.00
* Cn1cc(-c2cccc(-c3ncc(-c4cnn(Cc5cccnc5)c4)cn3)c2)cn1 | 6.00 to 7.00

Required: pIC50, one value per compound below.
1. COCC(O)Cn1cc(-c2cnc(-c3cccc(-c4cnn(C)c4)c3)nc2)cn1 (stereo not shown)
2. Cn1cc(-c2cccc(-c3ncc(-c4cnn(CCO)c4)cn3)c2)cn1
3. Cn1cc(-c2cccc(-c3ncc(-c4cnn(C5CCN(S(C)(=O)=O)CC5)c4)cn3)c2)cn1
4. Cn1cc(-c2cccc(-c3ncc(-c4cnn(C5C[C@H]6CC[C@@H](C5)N6)c4)cn3)c2)cn1 (stereo partly shown)

Result:
1. 5.30 to 6.00
2. 6.00 to 7.00
3. 6.00 to 7.00
4. 6.00 to 7.00

Required: pIC50, one value per compound below.
1. Cn1cc(-c2cc(F)cc(-c3ncc(-c4cnn(C5CCNCC5)c4)cn3)c2)cn1 [Example 24, hydrochloride]
2. Cn1cc(-c2cccc(-c3ncc(-c4cnn([C@@H]5CCCNC5)c4)cn3)c2)cn1
3. O=C(Cn1cc(-c2cnc(-c3cccc(-c4cnn(CCO)c4)c3)nc2)cn1)N1CCCC1

Result:
1: 6.00 to 7.00; 2: 6.00 to 7.00; 3: 5.30 to 6.00

###

- tgt: IRAK4 (Homo sapiens, UniProt Q9NWZ3)
- Construct: His (N); TEV cleavage site (N)
- protocol details: IRAK4 Enzymatic Assay
- experimental context: His-TEV-IRAK4 20 ng/well, ATP 2 μM, STK1-biotin peptide 300 nM, 3 hours at 30° C., FlashPlate radioactivity
pIC50: −log10 of the molar value.
property name: pIC50

Here's what some known entries look like.
- CN(C)C(=O)C1CC2(C1)CC(n1cc(-c3cnc(-c4cccc(-c5cnn(C)c5)c4)nc3)cn1)C2 (stereo not shown): 6.00 to 7.00
- CC(=O)N[C@H]1CC[C@@H](n2cc(-c3cnc(-c4cccc(-c5cnn(C)c5)c4)nc3)cn2)CC1: > 7.00
- Cn1cc(-c2cccc(-c3ncc(-c4cnn(C5C6COCC5CC(CO)C6)c4)cn3)c2)cn1 (stereo not shown): 6.00 to 7.00
- Cn1cc(-c2cccc(-c3ncc(-c4cnn([C@H]5CC[C@@H](O)CC5)c4)cn3)c2)cn1: 6.00 to 7.00
- Cn1cc(-c2cccc(-c3ncc(-c4cnn(CCC(=O)N5CC6(COC6)C5)c4)cn3)c2)cn1: 5.30 to 6.00
- Cn1cc(-c2cccc(-c3ncc(-c4cnn([C@@H]5CCNC5)c4)cn3)c2)cn1: 6.00 to 7.00

Field: next compound
Query: Look up pIC50 for this compound: CN(C)C(=O)[C@H]1CC[C@H](n2cc(-c3cnc(-c4cccc(-c5cnn(C)c5)c4)nc3)cn2)CC1
Result: > 7.00

###

- tgt: IRAK4 (Homo sapiens)
- Construct: His (N); TEV cleavage site (N)
- Sequence (Q9NWZ3 1-460): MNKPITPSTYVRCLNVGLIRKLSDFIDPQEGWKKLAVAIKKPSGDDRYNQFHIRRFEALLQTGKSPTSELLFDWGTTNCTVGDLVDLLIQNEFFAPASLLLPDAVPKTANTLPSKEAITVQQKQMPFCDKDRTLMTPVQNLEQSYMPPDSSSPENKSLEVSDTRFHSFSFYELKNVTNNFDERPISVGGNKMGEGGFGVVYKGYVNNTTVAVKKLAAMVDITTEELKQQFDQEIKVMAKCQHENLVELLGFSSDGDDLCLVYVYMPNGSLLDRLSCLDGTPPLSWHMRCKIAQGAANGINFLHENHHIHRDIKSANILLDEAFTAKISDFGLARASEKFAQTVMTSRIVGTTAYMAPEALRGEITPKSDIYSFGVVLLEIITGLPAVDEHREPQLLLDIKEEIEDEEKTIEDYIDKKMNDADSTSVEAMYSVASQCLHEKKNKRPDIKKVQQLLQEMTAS
- protocol details: IRAK4 Enzymatic Assay
- experimental context: His-TEV-IRAK4 20 ng/well, ATP 2 μM, STK1-biotin peptide 300 nM, 3 hours at 30° C., FlashPlate radioactivity
pIC50: −log10 of the molar value.
Field: pIC50. Provide a value for each of the compounds that follow.

- Cn1cc(-c2cccc(-c3ncc(-c4cnn(C5CCN(CC(O)C(F)(F)F)CC5)c4)cn3)c2)cn1 (stereo not shown): 6.00 to 7.00
- Cn1cc(-c2cccc(-c3ncc(-c4cnn(C5CCCC(S(C)(=N)=O)C5)c4)cn3)c2)cn1 (stereo not shown): > 7.00

Required: pIC50, one value per compound below.
1. CC(=O)N1CC[C@H](n2cc(-c3cnc(-c4cccc(-c5cnn(C)c5)c4)nc3)cn2)C[C@@H]1C
2. C[C@H](CO)NC(=O)[C@H]1CC[C@H](n2cc(-c3cnc(-c4cccc(-c5cnn(C)c5)c4)nc3)cn2)CC1

Result:
> 7.00
> 7.00

###

- tgt: IRAK4 (Homo sapiens)
- Construct: His (N); TEV cleavage site (N)
- Sequence (Q9NWZ3 1-460): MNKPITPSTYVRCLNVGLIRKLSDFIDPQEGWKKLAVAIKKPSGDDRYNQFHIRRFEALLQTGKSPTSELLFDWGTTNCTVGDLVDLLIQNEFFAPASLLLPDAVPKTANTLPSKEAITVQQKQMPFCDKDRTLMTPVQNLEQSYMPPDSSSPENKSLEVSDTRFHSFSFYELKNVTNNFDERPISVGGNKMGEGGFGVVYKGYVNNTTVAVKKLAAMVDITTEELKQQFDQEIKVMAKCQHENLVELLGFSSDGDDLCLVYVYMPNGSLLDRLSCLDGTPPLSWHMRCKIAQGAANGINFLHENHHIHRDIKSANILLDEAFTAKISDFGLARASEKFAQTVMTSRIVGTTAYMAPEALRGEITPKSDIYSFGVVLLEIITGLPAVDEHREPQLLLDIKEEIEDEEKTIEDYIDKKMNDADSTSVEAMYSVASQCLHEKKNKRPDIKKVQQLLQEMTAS
- protocol details: IRAK4 Enzymatic Assay
- experimental context: His-TEV-IRAK4 20 ng/well, ATP 2 μM, STK1-biotin peptide 300 nM, 3 hours at 30° C., FlashPlate radioactivity
property name: IC50

Required: IC50, one value per compound below.
1. Cn1cc(-c2cccc(-c3ncc(-c4cnn(C5CCOCC5)c4)cn3)c2)cn1
2. CC(C)N1C2CCCC1CC(n1cc(-c3cnc(-c4cccc(-c5cnn(C)c5)c4)nc3)cn1)C2 (stereo not drawn)

Result:
["100 to 1000 nM", "100 to 1000 nM"]
